Let's look at some compounds and their measured pKi.
Measurement target: Cannabinoid receptor 1 (Homo sapiens, UniProt P21554)
Sequence (P21554 whole entry): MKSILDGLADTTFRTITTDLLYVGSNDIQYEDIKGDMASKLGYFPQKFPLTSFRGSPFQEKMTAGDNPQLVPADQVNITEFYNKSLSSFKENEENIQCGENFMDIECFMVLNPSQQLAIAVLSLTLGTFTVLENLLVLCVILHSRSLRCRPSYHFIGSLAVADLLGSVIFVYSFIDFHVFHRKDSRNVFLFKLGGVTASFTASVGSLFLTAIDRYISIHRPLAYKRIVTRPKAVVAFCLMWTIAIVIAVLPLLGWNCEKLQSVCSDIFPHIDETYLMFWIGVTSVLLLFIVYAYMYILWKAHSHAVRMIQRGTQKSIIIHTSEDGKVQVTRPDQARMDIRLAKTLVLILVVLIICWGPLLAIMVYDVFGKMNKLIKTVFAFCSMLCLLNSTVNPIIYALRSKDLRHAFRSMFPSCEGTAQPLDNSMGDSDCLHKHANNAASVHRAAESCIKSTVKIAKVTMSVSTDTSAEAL
Assay procedure: Displacement of [3H]CP-55940 from human recombinant CB1 receptor expressed in HEK cells
Format: cell-based, HEK293
Condition info: read-out: Ki
pKi: −log10 of the molar value.
Quantity: pKi

- Compound: "CC1(C)C(C(=O)c2cn(CCN3CCOCC3)c3cccc(N)c23)C1(C)C"
  Result: "< 5.46"
- Compound: "CC1(C)C(C(=O)c2cn(CCN3CCOCC3)c3ccc(OCc4ccccc4)cc23)C1(C)C"
  Result: "< 5.00"
- Compound: "CN1CCCCC1Cn1cc(C(=O)c2cc([N+](=O)[O-])ccc2I)c2ccccc21 (centres undefined)"
  Result: 5.90
- Compound: "CC1(C)C(C(=O)c2cn(CCN3CCOCC3)c3ccc(O)cc23)C1(C)C"
  Result: "< 5.00"
- Compound: "CC1(C)C(C(=O)c2cn(CC3CCOCC3)c3ccc(Br)cc23)C1(C)C"
  Result: 5.71
- Compound: "CC1(C)C(C(=O)c2cn(CC3CCOCC3)c3cc(C(F)(F)F)ccc23)C1(C)C"
  Result: 7.15
- Compound: "CC(=O)Nc1cccc2c1c(C(=O)C1C(C)(C)C1(C)C)cn2CCN1CCOCC1"
  Result: "< 5.66"
- Compound: "COc1ccc2c(C(=O)C3C(C)(C)C3(C)C)cn(CC3CCOCC3)c2c1"
  Result: 7.40
- Compound: "CC1(C)C(C(=O)c2cn(CCN3CCOCC3)c3cc(O)ccc23)C1(C)C"
  Result: "< 5.00"
- Compound: "COC(=O)c1ccc2c(c1)c(C(=O)C1C(C)(C)C1(C)C)cn2CC1CCOCC1"
  Result: "< 5.00"
- Compound: "COc1ccc2c(c1)c(C(=O)C1C(C)(C)C1(C)C)cn2CCN1CCOCC1"
  Result: "< 5.46"
- Compound: "CC1(C)C(C(=O)c2cn(CC3CCOCC3)c3c(OCc4ccccc4)cccc23)C1(C)C"
  Result: 5.96
- Compound: "CC1(C)C(C(=O)c2cn(CC3CCOCC3)c3ccc(OCCCCBr)cc23)C1(C)C"
  Result: "< 5.00"
- Compound: "CC1(C)C(C(=O)c2cn(CCN3CCOCC3)c3cccc([N+](=O)[O-])c23)C1(C)C"
  Result: "< 5.00"
